- Test system: Mythimna separata
- run_description: Antifeedant activity against second-instar larvae of Mythimna separata (Oriental armyworm) in compound treated leaves assessed as growth inhibition measured after 5 days by chronic growth bioassay
- Format: functional, organism-based
- run_parameters: 120 h, read-out: EC50
quantity_name: EC50

record_smiles=COc1c(F)c(F)cc(-c2nnc(COc3cnn(C(C)(C)C)c(=O)c3Cl)o2)c1F result="> 300 µg/mL"
record_smiles=Cc1cccc(-c2nnc(CSc3cnn(C(C)(C)C)c(=O)c3Cl)o2)c1 result="> 300 µg/mL"
record_smiles=CCCCn1ncc(OCc2nnc(-c3ccccc3)o2)c(Cl)c1=O result="> 300 µg/mL"
record_smiles=CCn1ncc(OCc2nnc(-c3ccccc3)o2)c(Cl)c1=O result="> 300 µg/mL"
record_smiles=Cc1cc(C)cc(-c2nnc(COc3cnn(C(C)(C)C)c(=O)c3Cl)s2)c1 result="> 300 µg/mL"

Give EC50 for each listed item.
1. CC(C)(C)n1ncc(SCc2nnc(-c3ccccc3)o2)c(Cl)c1=O
2. Cc1cccc(-c2nnc(COc3cnn(C(C)(C)C)c(=O)c3Cl)s2)c1
3. CC(C)(C)n1ncc(SCc2nnc(-c3ccc([N+](=O)[O-])cc3)o2)c(Cl)c1=O
4. CCn1ncc(OCc2nnc(-c3ccc(F)cc3)o2)c(Cl)c1=O
5. Cc1nnc(COc2cnn(C(C)(C)C)c(=O)c2Cl)o1

["> 300 µg/mL", "> 300 µg/mL", "> 300 µg/mL", "> 300 µg/mL", "> 300 µg/mL"]
